# protocol: Selectivity index, ratio of ED50 for human HaCaT cells to MIC for Staphylococcus aureus 3R7089 strain Oxford/ATCC 9144
# Assay type: toxicity
# details: read-out: Selectivity Index
We begin with a simple list: items and their reported selectivity ratio.
No unit in the answer, please; the number alone is enough.

INSERT INTO measurements (compound_smiles, recorded_number) VALUES
  ('NCCCCNCC(=O)N(CC(=O)N(CC(=O)N(CCCCN)CC(=O)N(CC(=O)N(CC(=O)N(CCCCN)CC(=O)N(CC(=O)N(CC(=O)N(CCCCN)CC(=O)N(CC(=O)N(CC(N)=O)Cc1cccc(F)c1)Cc1cccc(F)c1)Cc1cccc(F)c1)Cc1cccc(F)c1)Cc1cccc(F)c1)Cc1cccc(F)c1)Cc1cccc(F)c1)Cc1cccc(F)c1', 4);

Tell me measured selectivity ratio for `COc1ccc(CN(CC(N)=O)C(=O)CN(Cc2ccc(OC)cc2)C(=O)CN(CCCCN)C(=O)CN(Cc2ccc(OC)cc2)C(=O)CN(Cc2ccc(OC)cc2)C(=O)CN(CCCCN)C(=O)CN(Cc2ccc(OC)cc2)C(=O)CN(Cc2ccc(OC)cc2)C(=O)CN(CCCCN)C(=O)CN(Cc2ccc(OC)cc2)C(=O)CN(Cc2ccc(OC)cc2)C(=O)CNCCCCN)cc1` please.
14

###

We begin with a simple list: items and their reported selectivity ratio.
# protocol: Selectivity index, ratio of ED50 for human HepG2 cells to MIC for Staphylococcus epidermidis clinical isolate
# Format: toxicity
# details: read-out: Selectivity Index
Square brackets hold non-standard residues; d marks the D form. Peptide text beside a SMILES is read from it. Gly(N-(CH2)6NH2) = NCCCCCCNCC(=O)O; Nphe = O=C(O)CNCc1ccccc1
No unit in the answer, please; the number alone is enough.

INSERT INTO assay_data (molecule, measurement_name, recorded_number) VALUES
  ('NCCCCCCNCC(=O)N(CC(=O)N(CC(=O)N(CCCCCCN)CC(=O)N(CC(=O)N(CC(=O)N(CCCCCCN)CC(=O)N(CC(=O)N(CC(N)=O)Cc1ccccc1)Cc1ccccc1)Cc1ccccc1)Cc1ccccc1)Cc1ccccc1)Cc1ccccc1 (H-[Gly(N-(CH2)6NH2)][Nphe][Nphe][Gly(N-(CH2)6NH2)][Nphe][Nphe][Gly(N-(CH2)6NH2)][Nphe][Nphe]-NH2)', 'selectivity ratio', 33);

Now let's try a different one.
Tell me measured selectivity ratio for NCCCCCCNCC(=O)N(CC(=O)N(CC(=O)N(CCCCCCN)CC(=O)N(CC(=O)N(CC(N)=O)Cc1ccccc1)Cc1ccccc1)Cc1ccccc1)Cc1ccccc1 (H-[Gly(N-(CH2)6NH2)][Nphe][Nphe][Gly(N-(CH2)6NH2)][Nphe][Nphe]-NH2) please.
1

###

# protocol: Selectivity index, ratio of ED50 for human HepG2 cells to MIC for Staphylococcus epidermidis clinical isolate
# Type: toxicity
# details: read-out: Selectivity Index
Square brackets hold non-standard residues; d marks the D form. Peptide text beside a SMILES is read from it. Nspe = C[C@H](NCC(=O)O)c1ccccc1; Nphe = O=C(O)CNCc1ccccc1; Nlys = NCCCCNCC(=O)O
measurement_name: selectivity ratio

Some entries whose results are on file:
INSERT INTO assay_data (compound, measurement_name, result) VALUES
  ('C[C@@H](c1ccccc1)N(CC(N)=O)C(=O)CN(C(=O)CN(CCN)C(=O)CN(C(=O)CN(C(=O)CNCCN)[C@@H](C)c1ccccc1)[C@@H](C)c1ccccc1)[C@@H](C)c1ccccc1', 'selectivity ratio', 1),
  ('C[C@@H](c1ccccc1)N(CC(N)=O)C(=O)CN(C(=O)CN(CCCCN)C(=O)CN(C(=O)CN(C(=O)CNCCCCN)[C@@H](C)c1ccccc1)[C@@H](C)c1ccccc1)[C@@H](C)c1ccccc1 (H-[Nlys][Nspe][Nspe][Nlys][Nspe][Nspe]-NH2)', 'selectivity ratio', 4),
  ('COc1ccc(CN(CC(N)=O)C(=O)CN(Cc2ccc(OC)cc2)C(=O)CN(CCCCN)C(=O)CN(Cc2ccc(OC)cc2)C(=O)CN(Cc2ccc(OC)cc2)C(=O)CN(CCCCN)C(=O)CN(Cc2ccc(OC)cc2)C(=O)CN(Cc2ccc(OC)cc2)C(=O)CN(CCCCN)C(=O)CN(Cc2ccc(OC)cc2)C(=O)CN(Cc2ccc(OC)cc2)C(=O)CNCCCCN)cc1', 'selectivity ratio', 50);

Now let's try a different one.
Tell me measured selectivity ratio for NCCCCNCC(=O)N(CC(=O)N(CC(=O)N(CCCCN)CC(=O)N(CC(=O)N(CC(N)=O)Cc1ccccc1)Cc1ccccc1)Cc1ccccc1)Cc1ccccc1 (H-[Nlys][Nphe][Nphe][Nlys][Nphe][Nphe]-NH2) please.
1

###

# protocol: Cytotoxicity against human HaCaT cells assessed as reduction in cell viability pretreated for 1 hr followed by DMEM addition measured after 24 hrs by alamar blue assay
# Format: cell-based
# details: read-out: ED50
Square brackets hold non-standard residues; d marks the D form. Peptide text beside a SMILES is read from it. N(4-F-Bzl)Gly = O=C(O)CNCc1ccc(F)cc1; Gly(N-(CH2)6NH2) = NCCCCCCNCC(=O)O; Nphe = O=C(O)CNCc1ccccc1; Nlys = NCCCCNCC(=O)O
measurement_name: CC50 at 24 h

Some entries whose results are on file:
INSERT INTO assay_data (compound, measurement_name, result) VALUES
  ('NCCCCCCNCC(=O)N(CC(=O)N(CC(=O)N(CCCCCCN)CC(=O)N(CC(=O)N(CC(=O)N(CCCCCCN)CC(=O)N(CC(=O)N(CC(=O)N(CCCCCCN)CC(=O)N(CC(=O)N(CC(N)=O)Cc1ccccc1)Cc1ccccc1)Cc1ccccc1)Cc1ccccc1)Cc1ccccc1)Cc1ccccc1)Cc1ccccc1)Cc1ccccc1 (H-[Gly(N-(CH2)6NH2)][Nphe][Nphe][Gly(N-(CH2)6NH2)][Nphe][Nphe][Gly(N-(CH2)6NH2)][Nphe][Nphe][Gly(N-(CH2)6NH2)][Nphe][Nphe]-NH2)', 'CC50 at 24 h', '> 100 µM'),
  ('NCCCCNCC(=O)N(CC(=O)N(CC(=O)N(CCCCN)CC(=O)N(CC(=O)N(CC(=O)N(CCCCN)CC(=O)N(CC(=O)N(CC(N)=O)Cc1ccc(F)cc1)Cc1ccc(F)cc1)Cc1ccc(F)cc1)Cc1ccc(F)cc1)Cc1ccc(F)cc1)Cc1ccc(F)cc1 (H-[Nlys][N(4-F-Bzl)Gly][N(4-F-Bzl)Gly][Nlys][N(4-F-Bzl)Gly][N(4-F-Bzl)Gly][Nlys][N(4-F-Bzl)Gly][N(4-F-Bzl)Gly]-NH2)', 'CC50 at 24 h', '> 100 µM');

Tell me measured CC50 at 24 h for C[C@H](c1ccccc1)N(CC(N)=O)C(=O)CN(C(=O)CN(CCCCN)C(=O)CN(C(=O)CN(C(=O)CN(CCCCN)C(=O)CN(C(=O)CN(C(=O)CNCCCCN)[C@H](C)c1ccccc1)[C@@H](C)c1ccccc1)[C@H](C)c1ccccc1)[C@@H](C)c1ccccc1)[C@H](C)c1ccccc1 (stereo in doubt) please.
> 100 µM

###

# protocol: Selectivity index, ratio of ED50 for human HaCaT cells to MIC for Staphylococcus epidermidis clinical isolate
# Type: toxicity
# details: read-out: Selectivity Index
Square brackets hold non-standard residues; d marks the D form. Peptide text beside a SMILES is read from it. N(4-F-Bzl)Gly = O=C(O)CNCc1ccc(F)cc1; Gly(N-(CH2)6NH2) = NCCCCCCNCC(=O)O; Gly(N-2-aminoethyl) = NCCNCC(=O)O; Nspe = C[C@H](NCC(=O)O)c1ccccc1; NhArg = N=C(N)NCCCCNCC(=O)O; NPentylGly = CCCCCNCC(=O)O; Nphe = O=C(O)CNCc1ccccc1; Nlys = NCCCCNCC(=O)O
measurement_name: selectivity ratio
No unit in the answer, please; the number alone is enough.

INSERT INTO measurements (compound, recorded_number) VALUES
  ('CCCCCN(CC(=O)N(CC(=O)N(CC(=O)N(CCCCN)CC(=O)N(CC(=O)N(CC(N)=O)[C@@H](C)c1ccccc1)[C@@H](C)c1ccccc1)C(C)c1ccccc1)[C@@H](C)c1ccccc1)C(=O)CN(C(=O)CN(C(=O)CN(CCCCN)C(=O)CN(C(=O)CN(C(=O)CNCCCCN)[C@@H](C)c1ccccc1)C(C)c1ccccc1)[C@@H](C)c1ccccc1)C(C)c1ccccc1 (single isomer, unassigned)', 10),
  ('N=C(N)NCCCCNCC(=O)N(CC(=O)N(CC(=O)N(CCCCNC(=N)N)CC(=O)N(CC(=O)N(CC(=O)N(CCCCNC(=N)N)CC(=O)N(CC(=O)N(CC(=O)N(CCCCNC(=N)N)CC(=O)N(CC(=O)N(CC(N)=O)Cc1ccccc1)Cc1ccccc1)Cc1ccccc1)Cc1ccccc1)Cc1ccccc1)Cc1ccccc1)Cc1ccccc1)Cc1ccccc1 (H-[NhArg][Nphe][Nphe][NhArg][Nphe][Nphe][NhArg][Nphe][Nphe][NhArg][Nphe][Nphe]-NH2)', 50);

Tell me measured selectivity ratio for `COc1ccc(CN(CC(N)=O)C(=O)CN(Cc2ccc(OC)cc2)C(=O)CN(CCCCN)C(=O)CN(Cc2ccc(OC)cc2)C(=O)CN(Cc2ccc(OC)cc2)C(=O)CN(CCCCN)C(=O)CN(Cc2ccc(OC)cc2)C(=O)CN(Cc2ccc(OC)cc2)C(=O)CN(CCCCN)C(=O)CN(Cc2ccc(OC)cc2)C(=O)CN(Cc2ccc(OC)cc2)C(=O)CNCCCCN)cc1` please.
21

Tell me measured selectivity ratio for CCCCCNCC(=O)N(CC(=O)N(CC(=O)N(CCCCN)CC(=O)N(CC(=O)N(CC(=O)N(CCCCN)CC(=O)N(CC(=O)N(CC(=O)N(CCCCN)CC(=O)N(CC(=O)N(CC(N)=O)[C@@H](C)c1ccccc1)[C@@H](C)c1ccccc1)C(C)c1ccccc1)[C@@H](C)c1ccccc1)[C@@H](C)c1ccccc1)[C@@H](C)c1ccccc1)C(C)c1ccccc1)[C@@H](C)c1ccccc1 (single isomer, unassigned) please.
6

Tell me measured selectivity ratio for NCCCCNCC(=O)N(CC(=O)N(CC(=O)N(CCCCN)CC(=O)N(CC(=O)N(CC(=O)N(CCCCN)CC(=O)N(CC(=O)N(CC(N)=O)Cc1ccc(F)cc1)Cc1ccc(F)cc1)Cc1ccc(F)cc1)Cc1ccc(F)cc1)Cc1ccc(F)cc1)Cc1ccc(F)cc1 (H-[Nlys][N(4-F-Bzl)Gly][N(4-F-Bzl)Gly][Nlys][N(4-F-Bzl)Gly][N(4-F-Bzl)Gly][Nlys][N(4-F-Bzl)Gly][N(4-F-Bzl)Gly]-NH2) please.
33

Tell me measured selectivity ratio for NCCNCC(=O)N(CC(=O)N(CC(=O)N(CCN)CC(=O)N(CC(=O)N(CC(N)=O)Cc1ccccc1)Cc1ccccc1)Cc1ccccc1)Cc1ccccc1 (H-[Gly(N-2-aminoethyl)][Nphe][Nphe][Gly(N-2-aminoethyl)][Nphe][Nphe]-NH2) please.
1

Tell me measured selectivity ratio for CC(c1ccccc1)N(CC(=O)N(CCCCN)CC(=O)N(CC(=O)N(CC(=O)N(CCCCN)CC(=O)N(CC(=O)N(CC(N)=O)[C@@H](C)c1ccccc1)[C@@H](C)c1ccccc1)Cc1ccc(F)cc1)Cc1ccc(F)cc1)C(=O)CN(C(=O)CNCCCCN)[C@@H](C)c1ccccc1 (single isomer, unassigned) please.
33

Tell me measured selectivity ratio for CC(c1ccccc1)N(CC(=O)N(CCCCN)CC(=O)N(CC(=O)N(CC(=O)N(CCCCN)CC(=O)N(CC(=O)N(CC(N)=O)[C@@H](C)c1ccccc1)Cc1ccc(F)cc1)C(C)c1ccccc1)Cc1ccc(F)cc1)C(=O)CN(Cc1ccc(F)cc1)C(=O)CNCCCCN (single isomer, unassigned) please.
26

Tell me measured selectivity ratio for C[C@@H](c1ccccc1)N(CC(N)=O)C(=O)CN(C(=O)CN(CCCCCCN)C(=O)CN(C(=O)CN(C(=O)CN(CCCCCCN)C(=O)CN(C(=O)CN(C(=O)CN(CCCCCCN)C(=O)CN(C(=O)CN(C(=O)CNCCCCCCN)[C@@H](C)c1ccccc1)[C@@H](C)c1ccccc1)[C@@H](C)c1ccccc1)[C@@H](C)c1ccccc1)[C@@H](C)c1ccccc1)[C@@H](C)c1ccccc1)[C@@H](C)c1ccccc1 (H-[Gly(N-(CH2)6NH2)][Nspe][Nspe][Gly(N-(CH2)6NH2)][Nspe][Nspe][Gly(N-(CH2)6NH2)][Nspe][Nspe][Gly(N-(CH2)6NH2)][Nspe][Nspe]-NH2) please.
12

Tell me measured selectivity ratio for NCCNCC(=O)N(CC(=O)N(CC(=O)N(CCN)CC(=O)N(CC(=O)N(CC(=O)N(CCN)CC(=O)N(CC(=O)N(CC(=O)N(CCN)CC(=O)N(CC(=O)N(CC(N)=O)Cc1ccccc1)Cc1ccccc1)Cc1ccccc1)Cc1ccccc1)Cc1ccccc1)Cc1ccccc1)Cc1ccccc1)Cc1ccccc1 (H-[Gly(N-2-aminoethyl)][Nphe][Nphe][Gly(N-2-aminoethyl)][Nphe][Nphe][Gly(N-2-aminoethyl)][Nphe][Nphe][Gly(N-2-aminoethyl)][Nphe][Nphe]-NH2) please.
17

Tell me measured selectivity ratio for CCCCCNCC(=O)N(CC(=O)N(CC(=O)N(CCCCNC(=N)N)CC(=O)N(CC(=O)N(CC(=O)N(CCCCC)CC(=O)N(CC(=O)N(CC(=O)N(CCCCNC(=N)N)CC(=O)N(CC(=O)N(CC(N)=O)[C@@H](C)c1ccccc1)[C@@H](C)c1ccccc1)[C@@H](C)c1ccccc1)[C@@H](C)c1ccccc1)[C@@H](C)c1ccccc1)[C@@H](C)c1ccccc1)[C@@H](C)c1ccccc1)[C@@H](C)c1ccccc1 (H-[NPentylGly][Nspe][Nspe][NhArg][Nspe][Nspe][NPentylGly][Nspe][Nspe][NhArg][Nspe][Nspe]-NH2) please.
5
